# maps each entry to its MLD (minimum lethal dose)
System: ddY-strain male mice
Protocol Description: Acute Toxicity
Format: in vivo
Conditions: i.v., mortality at 14 days after administration
Assay Endpoint: MLD (minimum lethal dose)

Compound: COC(=O)c1c(C)[nH]c2c(OC(=O)N3CCN(C)CC3)cc3c(c12)C(CBr)CN3C(=O)COc1ccc(OC(F)(F)F)cc1 (stereo not drawn) [Compound 25]
Result: 4.0 mg/kg
//
Compound: COC(=O)Oc1cc2c(c3c(C(=O)OC)c(C)[nH]c13)C(CBr)CN2C(=O)/C=C/c1ccc(OC)nc1 (stereo not drawn) [Compound 4]
Result: 0.50 mg/kg
//
Compound: COC(=O)c1c(C)[nH]c2c(OC(=O)c3cccnc3)cc3c(c12)C(CBr)CN3C(=O)/C=C/c1ccc(OC)c(N(C)C)c1 (stereo not drawn) [Compound 55]
Result: 1.0 mg/kg

* * *

System: ddY-strain male mice
Protocol Description: Acute Toxicity
Format: in vivo
Conditions: i.v., mortality at 14 days after administration

Compound: COC(=O)c1c(C)[nH]c2c(OC(=O)NN3CCN(C)CC3)cc3c(c12)C(CBr)CN3C(=O)/C=C/c1cnc(OC)nc1 (centres unmarked) [Compound 72]
MLD (minimum lethal dose): 4.0 mg/kg

Compound: COC(=O)c1c(C)[nH]c2c(OC(=O)N(C)N)cc3c(c12)C(CBr)CN3C(=O)/C=C/c1ccc(OC)c(N(C)C)c1 (centres unmarked) [Compound 53]
MLD (minimum lethal dose): 2.0 mg/kg

Compound: COC(=O)c1c(C)[nH]c2c(OC(=O)NN3CCN(C)CC3)cc3c(c12)C(CCl)CN3C(=O)/C=C/c1cnc(OC)nc1 (centres unmarked) [Compound 69]
MLD (minimum lethal dose): 4.0 mg/kg

Compound: COC(=O)c1c(C)[nH]c2c(OC(=O)CN3CCN(C)CC3)cc3c(c12)C(CBr)CN3C(=O)/C=C/c1ccc(OC)c(N(C)C)c1 (centres unmarked) [Compound 82]
MLD (minimum lethal dose): 2.0 mg/kg

Compound: COC(=O)c1c(C)[nH]c2c(OC(=O)NN3CCN(C)CC3)cc3c(c12)C(CBr)CN3C(=O)/C=C/c1ccc(OC)c(N(C)C)c1 (centres unmarked) [Compound 60]
MLD (minimum lethal dose): > 8.0 mg/kg

Compound: COC(=O)c1c(C)[nH]c2c(OC(=O)N3CCN(C)CC3)cc3c(c12)C(CBr)CN3C(=O)/C=C/c1cnc(OC)nc1 (centres unmarked) [Compound 8]
MLD (minimum lethal dose): 4.0 mg/kg

Compound: COC(=O)c1c(C)[nH]c2c(OC(C)=O)cc3c(c12)C(CBr)CN3C(=O)/C=C/c1ccc(OC)c(N(C)C)c1 (centres unmarked) [Compound 45]
MLD (minimum lethal dose): 1.0 mg/kg

Compound: COC(=O)c1c(C)[nH]c2c(OC(=O)c3ccc(CN4CCN(C)CC4)cc3)cc3c(c12)C(CBr)CN3C(=O)/C=C/c1ccc(OC)c(N(C)C)c1 (centres unmarked) [Compound 66]
MLD (minimum lethal dose): 2.0 mg/kg

Compound: COC(=O)c1c(C)[nH]c2c(OC(=O)c3cccnc3)cc3c(c12)C(CBr)CN3C(=O)/C=C/c1ccc(N(C)C)cc1 (centres unmarked) [Compound 77]
MLD (minimum lethal dose): 4.0 mg/kg

Compound: COC(=O)c1c(C)[nH]c2c(OC(C)=O)cc3c(c12)C(CBr)CN3C(=O)/C=C/c1cnc(OC)nc1 (centres unmarked) [Compound 11]
MLD (minimum lethal dose): 1.0 mg/kg

Compound: COC(=O)c1c(C)[nH]c2c(OC(=O)N3CCN(C)CC3)cc3c(c12)C(CBr)CN3C(=O)/C=C/c1ccc(OC)nn1 (centres unmarked) [Compound 14]
MLD (minimum lethal dose): 0.50 mg/kg

Compound: COC(=O)c1c(C)[nH]c2c(OC(=O)N3CCN(C)CC3)cc3c(c12)C(CBr)CN3C(=O)/C=C/c1ccc(OC)nc1 (centres unmarked) [Compound 3]
MLD (minimum lethal dose): 1.0 mg/kg

Compound: COC(=O)c1c(C)[nH]c2c(OC(=O)NN(C)C)cc3c(c12)C(CBr)CN3C(=O)/C=C/c1ccc(OC)c(N(C)C)c1 (centres unmarked) [Compound 62]
MLD (minimum lethal dose): 2.0 mg/kg

Compound: COC(=O)c1c(C)[nH]c2c(OC(=O)N3CCN(C)CC3)cc3c(c12)C(CBr)CN3C(=O)COc1ccc(OC)cc1 (centres unmarked) [Compound 20]
MLD (minimum lethal dose): 0.50 mg/kg
